# assayedTarget: UniProtKB P05186
# Sequence (P05186 18-502 limits assumed): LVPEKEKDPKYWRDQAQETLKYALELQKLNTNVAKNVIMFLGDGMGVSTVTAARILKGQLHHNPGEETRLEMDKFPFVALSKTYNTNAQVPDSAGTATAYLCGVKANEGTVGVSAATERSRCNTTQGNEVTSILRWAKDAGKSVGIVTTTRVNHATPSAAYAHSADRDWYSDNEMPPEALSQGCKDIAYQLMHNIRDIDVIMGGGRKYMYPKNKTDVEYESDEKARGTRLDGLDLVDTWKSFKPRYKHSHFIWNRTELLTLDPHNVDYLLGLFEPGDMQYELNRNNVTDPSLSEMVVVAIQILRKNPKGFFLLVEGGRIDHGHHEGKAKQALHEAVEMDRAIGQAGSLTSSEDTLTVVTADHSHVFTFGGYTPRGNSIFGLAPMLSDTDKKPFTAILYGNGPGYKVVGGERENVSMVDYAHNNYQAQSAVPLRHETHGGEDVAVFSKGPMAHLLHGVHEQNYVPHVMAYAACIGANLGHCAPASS
# assayInfo: TNAP inhibitory activity, colorimetric assay (alkaline phosphatase assay kit ab83369, pNPP substrate)
# Format: biochemical
# conditionParameters: TNAP enzyme, 2 hours at room temperature, absorbance 405 nm
pIC50: −log10 of the molar value. Counter-ions that a name gives are not always drawn.
quantityName: pIC50

• COc1ccc(OC)c(S(=O)(=O)Nc2cnc3c(c2)CNCC3)c1 [Example 94, hydrochloride] = 7.00 to 8.00
• O=C1NCc2ncc(NS(=O)(=O)c3cc(Br)cc4c3OCC4)cc21 [Example 5] = 6.00 to 7.00
• COc1ccc(-c2cnn(C3CCNCC3)c2)cc1S(=O)(=O)Nc1cnc2c(c1)C(=O)NCC2 [Example 86, hydrochloride] = 6.00 to 7.00
• COc1ccc(-c2cn(C(C)C)nc2C(F)(F)F)cc1S(=O)(=O)Nc1cnc2c(c1)C(=O)NCC2 [Example 81] = 7.00 to 8.00
• COc1ccc(F)cc1S(=O)(=O)Nc1cnc2c(c1)CN(C(=O)NC(C)C)CC2 [Example 105] = 7.00 to 8.00
• COc1ccc(Br)cc1S(=O)(=O)Nc1cnc2c(c1)C(=O)NCCC2 [Example 14] = 6.00 to 7.00
• O=C1NCc2ncc(NS(=O)(=O)c3c(F)cc(F)cc3Br)cc21 [Example 12] = ≤ 6.00
• O=C1NCCc2ncc(NS(=O)(=O)c3cc(-c4ccc(C5(C(=O)O)CC5)cc4)cc4c3OCC4)cc21 [Example 38] = ≤ 6.00
